Each recorded value in this set is attributed to patent US8642629B2.

target: human CRTH2 (Homo sapiens); construct: expressed in transfected cells; host or cells: CHO-K1; test: Human CRTH2 Receptor Binding Assay (whole cell, [3H]ramatroban competition); conditions: CHO-K1 cells expressing human CRTH2 and G-alpha16; 20 nM [3H]ramatroban; 1 hour, room temperature
quantity.kind: IC50 (nM)
Give a bare numeral; the unit nM is implied.

Below, 6 molecules whose answers are already recorded.
Entry `Cc1c(CC(=O)O)cc2ccc(F)cc2c1Oc1ccc(S(=O)(=O)N2CCC(F)(F)CC2)cc1` ; assay system human CRTH2 (Homo sapiens); IC50 recorded at 2.9

Entry `Cc1c(CC(=O)O)cc2ccc(F)cc2c1Oc1ccc(S(=O)(=O)C2CCCC2)cc1` ; assay system human CRTH2 (Homo sapiens); IC50 recorded at 2.3

Entry `Cc1cc(S(C)(=O)=O)cnc1Oc1cc(CC(=O)O)cc2ccc(F)cc12` ; assay system human CRTH2 (Homo sapiens); IC50 recorded at 3.3

Entry `CCS(=O)(=O)c1cnc(Oc2c(C)c(CC(=O)O)cc3ccc(F)cc23)c(C2CC2)c1` ; assay system human CRTH2 (Homo sapiens); IC50 recorded at 2.8

Entry `CCc1cc(S(=O)(=O)CC)cnc1Oc1c(C)c(CC(=O)O)cc2ccc(F)cc12` ; assay system human CRTH2 (Homo sapiens); IC50 recorded at 2.9

Entry `Cc1c(CC(=O)O)cc2ccc(F)cc2c1Oc1ccc(S(C)(=O)=O)cc1Cl` ; assay system human CRTH2 (Homo sapiens); IC50 recorded at 2.5

***
Entry `Cc1c(CC(=O)O)cc2ccc(F)cc2c1Oc1ccc(S(C)(=O)=O)cc1` ; assay system human CRTH2 (Homo sapiens); IC50 recorded at 2.3

Entry `COc1ccc(S(=O)(=O)c2ccc(Oc3c(C)c(CC(=O)O)cc4ccc(F)cc34)cc2)cc1` ; assay system human CRTH2 (Homo sapiens); IC50 recorded at 2.7

====

pIC50 for assorted compounds
molecular target: human CRTH2 (Homo sapiens, UniProt Q9Y5Y4); construct: expressed in transfected cells; host or cells: CHO-K1; test: Human CRTH2 Receptor Binding Assay (whole cell, [3H]ramatroban competition); settings: CHO-K1 cells expressing human CRTH2 and G-alpha16; 20 nM [3H]ramatroban; 1 hour, room temperature
Notebook: values listed as pIC50 are -log10 of the concentration (mol/L).

Below, 3 compounds whose answers are already recorded.
Record summary for `Cc1cc(Oc2c(C)c(CC(=O)O)cc3ccc(F)cc23)ccc1S(C)(=O)=O` : reported pIC50 = 8.57

Record summary for `CCS(=O)(=O)c1cnc(Oc2c(C)c(CC(=O)O)cc3ccc(F)cc23)c(C)c1` : reported pIC50 = 8.54

Record summary for `CCS(=O)(=O)c1ccc(Oc2c(C)c(CC(=O)O)cc3ccc(F)cc23)cc1C` : reported pIC50 = 8.80

Next up:
Record summary for `Cc1c(CC(=O)O)cc2ccc(F)cc2c1Oc1ccc(S(C)(=O)=O)cc1F` : reported pIC50 = 8.74

====

IC50 for assorted compounds
Molecular target: human CRTH2 (Homo sapiens, UniProt Q9Y5Y4)
Construct: expressed in transfected cells; host or cells: CHO-K1
Sequence (Q9Y5Y4 1-395): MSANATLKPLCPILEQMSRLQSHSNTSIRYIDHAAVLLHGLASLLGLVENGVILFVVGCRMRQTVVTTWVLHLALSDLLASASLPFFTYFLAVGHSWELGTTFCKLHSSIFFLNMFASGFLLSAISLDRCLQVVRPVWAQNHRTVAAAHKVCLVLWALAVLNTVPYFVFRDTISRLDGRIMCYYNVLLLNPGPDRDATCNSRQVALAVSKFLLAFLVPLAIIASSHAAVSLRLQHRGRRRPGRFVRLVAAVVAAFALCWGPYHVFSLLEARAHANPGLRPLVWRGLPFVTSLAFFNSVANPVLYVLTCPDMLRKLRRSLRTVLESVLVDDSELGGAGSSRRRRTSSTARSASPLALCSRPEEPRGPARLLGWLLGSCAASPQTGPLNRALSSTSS
Experiment: Human CRTH2 Receptor Binding Assay (whole cell, [3H]ramatroban competition)
Details: CHO-K1 cells expressing human CRTH2 and G-alpha16; 20 nM [3H]ramatroban; 1 hour, room temperature
Give a bare numeral; the unit nM is implied.

Below, 4 compounds whose answers are already recorded.
Record summary for `Cc1c(CC(=O)O)cc2ccc(F)cc2c1Oc1ccc(S(=O)(=O)N2CCOCC2)cc1` : reported IC50 = 6.3

Record summary for `CCS(=O)(=O)c1ccc(Oc2cc(CC(=O)O)cc3ccc(F)cc23)c(C)c1` : reported IC50 = 3.3

Record summary for `CCS(=O)(=O)c1ccc(Oc2cc(CC(=O)O)cc3ccc(F)cc23)nc1` : reported IC50 = 5.6

Record summary for `Cc1c(CC(=O)O)cc2ccc(Cl)cc2c1Oc1ccc(S(C)(=O)=O)cc1` : reported IC50 = 2.2

***
Record summary for `CCS(=O)(=O)c1ccc(Oc2c(C)c(CC(=O)O)cc3ccc(F)cc23)c(Cl)c1` : reported IC50 = 2.4
